Entry source: a melting point compilation (Tetko et al.; mined from patent text by program, amines drawn as free bases though some values may be those of a salt)

Reported melting point values for the following compounds.

Would you please look over these solved cases?
Cc1ncc2cc(-c3ccc(F)cc3)c(N)nc2n1	252 to 254 °C
O=C(CCCl)NC(=O)Nc1cc(C(F)(F)F)cc(C(F)(F)F)c1	175 °C
c1ccc2cc(CC[C@H]3CNCCN3)ccc2c1	151 to 154 °C
COC(=O)c1c(C(=O)OC)c(C(C)C)n(CCC2CC(O)CC(=O)O2)c1-c1ccc(F)cc1 (stereo not given)	167 to 170 °C

Next, consider the following compound.
Reported melting point, compound CCC(CC)N(C[C@@H]1CCC[C@H](CN(C(=O)Nc2ccc(N(C)C)cc2)C(CC)CC)C1)C(=O)Nc1ccc(N(C)C)cc1 : ____
157 to 160 °C

====

Quick reference for melting point among some compounds

Give the measured melting point of O=C(O)c1ccc2cc(OCCC(c3ccccc3)(c3ccccc3)c3ccccc3)ccc2c1 .
243 to 244 °C

Also check CCOC(=O)C=Cc1ccc2c(c1)c(-c1cc3cccnc3n1S(=O)(=O)c1ccc(C)cc1)cn2C
159 to 162 °C

====

Below, each entry is listed alongside its reported melting point.

COc1ccc(CSc2nnc(-c3ccc4[nH]ncc4c3)o2)cc1	204 to 205 °C
O=C(Nc1n[nH]c(=S)s1)N[C@@H](Cc1c(F)c(F)c(F)c(F)c1F)C(=O)N1CCN(c2ccccn2)CC1	233 to 235 °C
Cn1ncc(N2CCCCC2)c(-c2ccccc2C=O)c1=O	134 to 135 °C

Requested field: melting point. Item: COc1cccc(NC(=O)OC2CN3CCC2CC3)c1 (stereo not given)
130 to 132 °C

Thanks! And Cc1cccc(CCOc2ccc([N+](=O)[O-])cc2)n1 ?
61 to 62 °C

====

ATTRIBUTE MEASURED: melting point

For orientation, consider the following solved cases.
O=C(NCc1cccs1)c1cc2ccnc(Cl)c2[nH]1	179 to 181 °C
O=C(Cc1ccnc2c1NC(=O)c1cccnc1N2C1CC1)c1ccccc1	195 to 197 °C
CCN(CC)C(=O)n1cc(Br)c(S(=O)(=O)c2cc(C)ccc2C)n1	83 to 84 °C
Oc1ccc(-c2nnc(-c3cccc(-c4nnc(-c5ccc(O)cc5)o4)c3)o2)cc1	> 400 °C

Moving on to another compound below.
Field request: melting point | item: CCOC(=O)C1=C(CO)NC=C(C(=O)OC)C1c1ccccc1Cl (stereo not given)
187 to 188 °C

====

ATTRIBUTE MEASURED: melting point

COC(=O)c1ccc(CBr)c(N(C)C(=O)OC)c1	99 to 102 °C

# query: melting point of entry CCCC(=O)c1cnc2c(OCCOCCO)cccc2c1Nc1ccc(F)cc1C
144 to 145 °C

Now give it for CC(C)(S)CNC(=O)CCC(=O)O too.
86 to 87 °C

Continue with COC(=O)c1c(C)c(O)cc(OC)c1Br
105 to 110 °C

Try CN1CCN(CCc2[nH]c(=O)[nH]c2-c2ccc(F)cc2)CC1 next.
237 to 239 °C

Again, but for COC(=O)c1cccc(-c2ccccc2OC2OC(C)C(O)C(O)C2O)c1 (configuration not stated)
137 to 140 °C

Now try CC(C)(C(=O)c1ccc(N2CCOCC2)cc1)N1CCOCC1 .
114 to 116 °C

Try this molecule too: COc1ccc2c(c1)OC(CNCCCOc1cc3ccccc3oc1=O)CO2 (configuration not stated)
176 to 178 °C
